- EXPERIMENTAL SYSTEM: furin, P09958;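 further: purified furin at 1:10 enzyme:substrate in 50 mM HEPES pH 7.5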
- Sequence (P09958 whole entry): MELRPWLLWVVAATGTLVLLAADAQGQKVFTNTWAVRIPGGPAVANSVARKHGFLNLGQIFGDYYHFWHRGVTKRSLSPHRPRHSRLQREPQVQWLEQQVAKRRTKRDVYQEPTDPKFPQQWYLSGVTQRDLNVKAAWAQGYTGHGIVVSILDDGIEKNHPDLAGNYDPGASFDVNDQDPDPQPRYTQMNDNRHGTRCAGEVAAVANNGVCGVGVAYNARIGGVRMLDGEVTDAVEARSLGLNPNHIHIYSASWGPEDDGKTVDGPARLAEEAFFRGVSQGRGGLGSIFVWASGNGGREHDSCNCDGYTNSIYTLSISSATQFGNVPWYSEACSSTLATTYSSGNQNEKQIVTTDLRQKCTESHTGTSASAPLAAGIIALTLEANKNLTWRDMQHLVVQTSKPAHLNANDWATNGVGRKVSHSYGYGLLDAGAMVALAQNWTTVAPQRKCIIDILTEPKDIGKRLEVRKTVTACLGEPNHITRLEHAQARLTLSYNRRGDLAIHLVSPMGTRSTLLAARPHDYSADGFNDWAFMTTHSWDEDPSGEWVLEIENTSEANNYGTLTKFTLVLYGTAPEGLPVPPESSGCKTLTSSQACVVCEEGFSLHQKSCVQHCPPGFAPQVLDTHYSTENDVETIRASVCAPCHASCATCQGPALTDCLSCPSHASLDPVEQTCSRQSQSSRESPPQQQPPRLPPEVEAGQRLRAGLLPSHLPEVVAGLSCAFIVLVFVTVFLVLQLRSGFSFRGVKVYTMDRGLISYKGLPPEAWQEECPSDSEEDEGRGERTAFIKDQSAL
- TEST DETAILS: furin cleavage Z-score vs untreated control; higher = more cleavage, active = 3.5 or more, inactive = 1 or less, 8 variable residues between constant flanks
- ASSAY CONTEXT: 15 min
This is one part of the list. How many sequences the whole screen found active is unknown.
OBSERVED PROPERTY: furin cleavage Z-score
One number for each entry.

Batch of 2 sequences: report furin cleavage Z-score for each.
1. CARNSRFRCRAGNASASA [FS-3013]
2. CAAPAVQTNWAGNASASA [HC1034]

A.
1. 0.474
2. -0.967

Batch of 4 sequences: report furin cleavage Z-score for each.
1. CAFLLLADARAGNASASA [HC522]
2. CAVAGALVAFAGNASASA [HC1090]
3. CARNRRAFGDAGNASASA [FS-2732]
4. CARNRRRVCKAGNASASA [FS-2162]

A.
1: -0.696; 2: -1.61; 3: 9.22; 4: -0.214

Q. // query furin cleavage Z-score value for entry CATTFCSGSWAGNASASA [HC1867]
A. 0.134
